Values were extracted from ChEMBL document CHEMBL4387782.

Biological target: Pancreatic triacylglycerol lipase (Sus scrofa)
Sequence (P00591 whole entry): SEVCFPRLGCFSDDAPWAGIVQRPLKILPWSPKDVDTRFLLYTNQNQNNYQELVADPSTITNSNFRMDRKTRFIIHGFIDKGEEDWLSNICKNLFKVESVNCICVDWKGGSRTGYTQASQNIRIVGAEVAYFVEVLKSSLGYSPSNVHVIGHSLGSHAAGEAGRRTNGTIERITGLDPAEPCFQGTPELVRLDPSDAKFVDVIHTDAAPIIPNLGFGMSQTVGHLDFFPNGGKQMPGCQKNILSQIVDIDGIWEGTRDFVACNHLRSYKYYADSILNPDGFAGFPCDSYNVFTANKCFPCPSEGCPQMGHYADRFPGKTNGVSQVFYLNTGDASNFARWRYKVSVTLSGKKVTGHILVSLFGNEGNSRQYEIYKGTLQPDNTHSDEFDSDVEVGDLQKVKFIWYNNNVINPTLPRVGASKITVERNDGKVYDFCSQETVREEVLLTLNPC
Experiment: Inhibition of porcine pancreatic lipase using pNPB as substrate measured after 30 mins using plasma treated sample
measurement-kind: pIC50
Bear in mind: pIC50 is minus log10 of a mol/L concentration; give just that figure.

I have this compound here, Oc1cc(O)c2c(c1)O[C@H](c1ccc(O)c(O)c1)[C@@H](O)C2 [CIANIDANOL] , and I need its recorded pIC50. 3.47

###

# pIC50 per entry
Target: Pancreatic triacylglycerol lipase (Sus scrofa)
Assay: Inhibition of porcine pancreatic lipase using pNPB as substrate measured after 30 mins
Bear in mind: pIC50 is minus log10 of a mol/L concentration; give just that figure.

Illustrative cases are given below, each with its answer.
Oc1ccc([C@H]2Oc3c(Cc4c(O)cc(O)c5c4O[C@H](c4ccc(O)c(O)c4)[C@@H](O)C5)c(O)cc(O)c3C[C@@H]2O)cc1O = 3.96
Oc1ccc([C@H]2Oc3cc(O)c(Cc4c(O)cc5c(c4O)C[C@H](O)[C@@H](c4ccc(O)c(O)c4)O5)c(O)c3C[C@@H]2O)cc1O = 4.10
Oc1ccc([C@H]2Oc3c(Cc4c(O)c(Cc5c(O)cc(O)c6c5O[C@H](c5ccc(O)c(O)c5)[C@@H](O)C6)c5c(c4O)C[C@H](O)[C@@H](c4ccc(O)c(O)c4)O5)c(O)cc(O)c3C[C@@H]2O)cc1O = 4.34

I'm curious: which pIC50 was measured for Oc1ccc([C@H]2Oc3cc(O)c(Cc4c(O)cc(O)c5c4O[C@H](c4ccc(O)c(O)c4)[C@@H](O)C5)c(O)c3C[C@@H]2O)cc1O tested on Pancreatic triacylglycerol lipase (Sus scrofa)? 3.99

I'm curious: which pIC50 was measured for Oc1ccc([C@H]2Oc3c(Cc4c(O)c(Cc5c(O)c(Cc6c(O)cc(O)c7c6O[C@H](c6ccc(O)c(O)c6)[C@@H](O)C7)c(O)c6c5O[C@H](c5ccc(O)c(O)c5)[C@@H](O)C6)c5c(c4O)C[C@H](O)[C@@H](c4ccc(O)c(O)c4)O5)c(O)cc(O)c3C[C@@H]2O)cc1O tested on Pancreatic triacylglycerol lipase (Sus scrofa)? 4.73
